Provenance of the data: PubChem BioAssay (Tox21)

- TEST SUMMARY: qHTS assay for small molecule disruptors of the mitochondrial membrane potential - cell viability (AID 720634); also: nearly all actives have a fitted effect of over 20% in size
- ASSAY SETUP: HepG2 viability, ATP luminescence (CellTiter-Glo), 1 h; series mostly up to 83.2 µM
- Experimental: U.S. Tox21 Program National Center for Advancing Translational Sciences [NCATS] NIH Chemical Genomics Center [NCGC] U.S. Environmental Protection Agency [EPA] National Institutes of Environmental Health Sciences [NIEHS] National Toxicology Program [NTP] […] Measuring MMP in living cells is commonly used to assess the effect of chemicals on mitochondrial function; decreases in MMP can be detected using lipophilic cationic fluorescent dyes. […] The cytotoxicity was measured in the same assay well of MMP assay. […]
Results filed as inconclusive are left out. The source made the active and inactive calls. Calls follow the shape of the full dose curve.
Would you mind answering with one of these outcomes? YES (active), NO (inactive)

Ask | Record lookup: outcome of this test for "Cc1occc1SSc1ccoc1C" ?
Reply | NO

Ask | Record lookup: outcome of this test for "Cc1ccc2ccc3cccc4ccc1c2c34" ?
Reply | NO

Ask | Record lookup: outcome of this test for "NCCCCCCNCCCCCCN" ?
Reply | NO

Ask | Record lookup: outcome of this test for "CSc1c(Cl)c(Cl)c(Cl)c(Cl)c1Cl" ?
Reply | NO

Ask | Record lookup: outcome of this test for "CC(C)(C)C1=CC(=O)C=C(C(C)(C)C)C1=O" ?
Reply | YES

Ask | Record lookup: outcome of this test for "CCCCCCCCCCCC(=O)N(CC)CC" ?
Reply | NO

Ask | Record lookup: outcome of this test for CCCC(CC)CCCCCCCN (centres undefined) ?
Reply | NO

Ask | Record lookup: outcome of this test for CCCCN(CCCC)CCC(O)c1cc2c(Cl)cc(Cl)cc2c2cc(C(F)(F)F)ccc12 (centres undefined) ?
Reply | NO
